Values from BindingDB's records for doi:10.1002/(SICI)1098-2396(200002)35:2<79::AID-SYN1>3.0.CO;2-X

assayed target: Alpha-1A adrenergic receptor (Homo sapiens, UniProt P35348)
Sequence (P35348 whole entry): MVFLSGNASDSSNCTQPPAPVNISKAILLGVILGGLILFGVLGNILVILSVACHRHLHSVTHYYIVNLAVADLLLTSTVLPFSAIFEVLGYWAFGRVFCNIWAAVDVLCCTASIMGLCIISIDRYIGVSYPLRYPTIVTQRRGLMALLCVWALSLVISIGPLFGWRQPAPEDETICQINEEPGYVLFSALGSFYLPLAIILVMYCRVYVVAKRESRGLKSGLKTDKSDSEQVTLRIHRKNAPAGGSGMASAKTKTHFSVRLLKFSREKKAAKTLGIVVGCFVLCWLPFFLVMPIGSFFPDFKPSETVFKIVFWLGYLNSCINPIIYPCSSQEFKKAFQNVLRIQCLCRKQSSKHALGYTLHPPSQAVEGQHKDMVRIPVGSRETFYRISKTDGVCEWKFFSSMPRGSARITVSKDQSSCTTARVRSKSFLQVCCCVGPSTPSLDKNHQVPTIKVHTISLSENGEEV

>  <compound>
Fc1cccc2c1OC1CNCC1O2 (stereo unspecified)

>  <assayed target>
Alpha-1A adrenergic receptor (Homo sapiens, UniProt P35348)

>  <Ki>
501 nM

$$$$

---

assayed target: 5-hydroxytryptamine receptor 1A (Homo sapiens, UniProt P08908)
Sequence (P08908 whole entry): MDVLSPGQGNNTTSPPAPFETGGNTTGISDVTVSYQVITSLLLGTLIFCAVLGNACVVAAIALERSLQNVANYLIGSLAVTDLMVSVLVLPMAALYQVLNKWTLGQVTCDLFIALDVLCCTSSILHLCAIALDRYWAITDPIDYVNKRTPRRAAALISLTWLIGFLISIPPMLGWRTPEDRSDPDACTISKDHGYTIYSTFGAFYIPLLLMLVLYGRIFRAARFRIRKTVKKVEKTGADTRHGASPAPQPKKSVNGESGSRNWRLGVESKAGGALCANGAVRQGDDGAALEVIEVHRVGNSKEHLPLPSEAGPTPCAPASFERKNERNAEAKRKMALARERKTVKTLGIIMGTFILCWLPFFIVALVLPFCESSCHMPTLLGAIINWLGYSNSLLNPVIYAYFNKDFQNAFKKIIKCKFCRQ
pKi: −log10 of the molar value.

>  <compound>
Fc1cccc2c1OC1CNCC1O2 (stereo unspecified)

>  <pKi>
6.80

$$$$

---

assayed target: Alpha-1B adrenergic receptor (Homo sapiens)
Sequence (P35368 whole entry): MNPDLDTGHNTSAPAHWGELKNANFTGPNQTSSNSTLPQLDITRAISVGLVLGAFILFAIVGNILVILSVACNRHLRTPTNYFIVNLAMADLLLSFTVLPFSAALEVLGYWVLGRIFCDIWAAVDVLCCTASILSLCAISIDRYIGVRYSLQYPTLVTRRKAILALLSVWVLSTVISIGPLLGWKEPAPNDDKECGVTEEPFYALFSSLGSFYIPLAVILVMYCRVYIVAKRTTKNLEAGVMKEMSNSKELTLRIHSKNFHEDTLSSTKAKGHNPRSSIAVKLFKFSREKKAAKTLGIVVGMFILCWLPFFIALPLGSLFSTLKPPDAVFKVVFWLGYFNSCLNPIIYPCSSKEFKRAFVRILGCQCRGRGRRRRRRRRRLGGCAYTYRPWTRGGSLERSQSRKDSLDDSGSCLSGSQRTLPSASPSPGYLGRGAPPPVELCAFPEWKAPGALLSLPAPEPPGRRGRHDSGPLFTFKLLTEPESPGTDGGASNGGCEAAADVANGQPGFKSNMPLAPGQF

>  <compound>
Fc1cccc2c1OC1CNCC1O2 (stereo unspecified)

>  <assayed target>
Alpha-1B adrenergic receptor (Homo sapiens)

>  <readout unit>
nM

>  <Ki>
1000

$$$$

---

assayed target: D(3) dopamine receptor (Homo sapiens)
Sequence (P35462 as listed by the source): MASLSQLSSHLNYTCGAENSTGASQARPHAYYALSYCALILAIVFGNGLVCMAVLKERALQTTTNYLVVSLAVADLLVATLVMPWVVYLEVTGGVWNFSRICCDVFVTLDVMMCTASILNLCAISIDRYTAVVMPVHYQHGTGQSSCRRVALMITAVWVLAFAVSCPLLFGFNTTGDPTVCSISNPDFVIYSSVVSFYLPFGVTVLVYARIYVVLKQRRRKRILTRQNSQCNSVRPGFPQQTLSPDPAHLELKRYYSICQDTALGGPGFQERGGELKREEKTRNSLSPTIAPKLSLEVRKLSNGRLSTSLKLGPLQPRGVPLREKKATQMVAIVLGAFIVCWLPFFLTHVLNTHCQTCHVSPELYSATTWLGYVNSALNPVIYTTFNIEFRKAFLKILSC

>  <compound>
Fc1cccc2c1OC1CNCC1O2 (stereo unspecified) [CAS_105182-45-4]

>  <Ki / nM>
1000

$$$$
